Please provide measured IC50 for the entries that follow.
molecular target: cdk1/cyclin B (Homo sapiens, UniProt P06493); assay: Cyclin-dependent kinase assay, cdk1/cyclin B; settings: CDK1 IC50, nM, Histone H1, 10 µM ATP
Sequence (P06493 whole entry): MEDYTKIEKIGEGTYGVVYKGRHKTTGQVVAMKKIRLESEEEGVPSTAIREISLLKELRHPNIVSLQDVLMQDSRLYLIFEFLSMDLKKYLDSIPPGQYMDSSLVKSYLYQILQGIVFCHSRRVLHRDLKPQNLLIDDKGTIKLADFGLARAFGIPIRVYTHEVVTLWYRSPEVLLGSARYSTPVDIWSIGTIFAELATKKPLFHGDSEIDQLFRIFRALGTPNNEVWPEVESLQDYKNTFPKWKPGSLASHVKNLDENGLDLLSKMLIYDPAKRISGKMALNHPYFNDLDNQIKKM
Sequence (P14635 whole entry partner): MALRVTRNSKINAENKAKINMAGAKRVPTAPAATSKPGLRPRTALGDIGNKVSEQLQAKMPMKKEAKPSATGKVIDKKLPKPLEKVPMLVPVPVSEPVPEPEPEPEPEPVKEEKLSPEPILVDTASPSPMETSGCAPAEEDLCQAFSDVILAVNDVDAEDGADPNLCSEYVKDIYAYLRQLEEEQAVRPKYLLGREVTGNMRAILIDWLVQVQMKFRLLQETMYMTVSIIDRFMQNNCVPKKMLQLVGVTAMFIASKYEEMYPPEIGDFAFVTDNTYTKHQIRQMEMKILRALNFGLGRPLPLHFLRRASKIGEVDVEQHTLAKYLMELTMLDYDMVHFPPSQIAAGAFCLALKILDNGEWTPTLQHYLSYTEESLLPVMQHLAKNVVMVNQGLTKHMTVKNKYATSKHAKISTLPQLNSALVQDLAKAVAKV
Structures can show the parent of a compound that is named as a salt.

Q: I have this molecule here, N[C@H]1CC[C@H](Nc2nc(NC3CCN(C(=O)OCc4ccc([N+](=O)[O-])cc4)CC3)c3ncn(C4CCCC4)c3n2)CC1 [compound 94, dihydrochloride] , and I need its recorded IC50.
Ans: 27 nM

Q: I have this molecule here, CCCCC(=O)N1CCC(Nc2nc(N[C@H]3CC[C@H](N)CC3)nc3c2ncn3C2CCCC2)CC1 [compound 56, dihydrochloride] , and I need its recorded IC50.
Ans: 43 nM

Q: I have this molecule here, CCCNC(=O)N1CCC(Nc2nc(N[C@H]3CC[C@H](N)CC3)nc3c2ncn3C2CCCC2)CC1 [compound 206, dihydrochloride] , and I need its recorded IC50.
Ans: 210 nM

Q: I have this molecule here, N[C@H]1CC[C@H](Nc2nc(NC3CCN(C(=O)c4ccncc4)CC3)c3ncn(C4CCCC4)c3n2)CC1 , and I need its recorded IC50.
Ans: 136 nM

Q: I have this molecule here, CCOC(=O)c1cccc(NC(=O)N2CCC(Nc3nc(N[C@H]4CC[C@H](N)CC4)nc4c3ncn4C3CCCC3)CC2)c1 [compound 195, dihydrochloride] , and I need its recorded IC50.
Ans: 50 nM

Q: I have this molecule here, COc1ccccc1C(=O)N1CCC(Nc2nc(N[C@H]3CC[C@H](N)CC3)nc3c2ncn3C2CCCC2)CC1 [compound 7, dihydrochloride] , and I need its recorded IC50.
Ans: 399 nM

Q: I have this molecule here, COc1cccc(NC(=O)N2CCC(Nc3nc(N[C@H]4CC[C@H](N)CC4)nc4c3ncn4C3CCCC3)CC2)c1 [compound 155, dihydrochloride] , and I need its recorded IC50.
Ans: 20 nM
